Reference for the values: PubChem BioAssay AID504834

- Assay comment: Primary qHTS for delayed death inhibitors of the malarial parasite plastid, 96 hour incubation; further: potency means the concentration at half of the fitted maximal effect
- Assay conditions: P. falciparum luciferase reporter growth; series mostly up to 28.7 µM
In all, about 320,000 compounds went through this assay and about 22,000 (6.9%) were called active. About 27% were inconclusive and are not listed. The list comes from a sample in which actives are over-represented; it also holds close analogues and randomly drawn compounds.
Observed property: Potency

compound="CN(CC1CCCN(CCc2cccc(C(F)(F)F)c2)C1)C(=O)c1ccc2nc[nH]c2c1 (centres undefined)" reported_value=inactive
compound="COc1ccccc1NC(=O)C(C)OC(=O)CC1CCCC1 (centres undefined)" reported_value=inactive
compound=Cc1cccc(OCCNC(=O)CSc2ccc(C(F)(F)F)cc2[N+](=O)[O-])c1 reported_value=inactive
compound="CC(Sc1ncnc2c1cnn2-c1ccccc1)C(=O)Nc1ccc(N2CCOCC2)cc1 (centres undefined)" reported_value=inactive
compound="CCN(CC)S(=O)(=O)c1ccc2[nH]c(=O)cc(C(=O)N(C)C3CCS(=O)(=O)C3)c2c1 (centres undefined)" reported_value=inactive

Go through the list and state Potency for each entry.
1. COc1cccc(CN(C)CC(=O)NCc2ccccc2Cl)c1OC
2. Fc1ccc(/C=N/n2c(COc3ccccc3)n[nH]c2=S)cc1
3. CN(C)C(=O)CCC(=O)N1CCCCC1C(=O)Nc1ccc(Oc2ccccc2F)cc1 (centres undefined)
4. CCOc1ccccc1NC(=O)CCc1nnc2ccc(NCc3ccco3)nn12
5. CCN(CC)CCn1c2c(c(SCC(=O)Nc3ccc(C(C)C)cc3)nc1=O)CCC2
6. COC(=O)c1cc(N2CCNCC2)nc2ccccc12

1: inactive; 2: inactive; 3: inactive; 4: 8.28 µM (active); 5: 4.15 µM (active); 6: inactive

Go through the list and state Potency for each entry.
1. COc1ccc(C(C)C)cc1S(=O)(=O)Nc1ncn[nH]1
2. CCCOc1cccc(C(=O)Nc2nnn(CCC)n2)c1
3. CC(=O)c1ccc(NC(=O)CCc2nnc3ccc(NCc4ccco4)nn23)cc1

1. inactive
2. 4.65 µM (active)
3. inactive

Go through the list and state Potency for each entry.
1. O=S(=O)(Cc1noc(-c2ccc(OC(F)(F)F)cc2)n1)c1ccc(F)cc1
2. CCOc1ccc(N(CC(=O)NCc2ccc(OC)cc2)S(=O)(=O)c2c(C)noc2C)cc1
3. CCCn1nnc(NC(=O)COc2ccc(CC)cc2)n1
4. CCOC(=O)c1c(N)sc2c1CCCC2=O

1. inactive
2. 9.28 µM (active)
3. inactive
4. inactive

Go through the list and state Potency for each entry.
1. COc1ccc(N=C(C)c2sc3ccccc3c2O)cc1
2. Cc1cc(C)nc(N2CCC(C(=O)Nc3ccc4c(c3)OCCO4)CC2)n1

1: inactive; 2: 9.28 µM (active)

Go through the list and state Potency for each entry.
1. COc1ccc(CCNS(=O)(=O)c2cn(C)nc2C)cc1
2. CCOC(=O)c1[nH]c2ccc(OC)cc2c1NC(=O)N1CCOCC1
3. Cc1cc(=O)n2nc(N3CCCC3C(=O)NCCCN3CC(C)CC(C)C3)sc2n1 (centres undefined)
4. CC(/C=C/c1ccco1)=N/NC(=O)C1COc2ccccc2O1 (centres undefined)
5. Cc1c(C(=O)N2CCOCC2)[nH]c2ccc(OCc3ccccc3)cc12
6. Cc1cc(=O)n2nc(N3CCC(C(=O)Nc4c(F)c(F)c(F)c(F)c4F)CC3)sc2n1
7. Nc1ccccc1Sc1ccc(C(F)(F)F)cc1[N+](=O)[O-]
8. CC(C)Oc1ccc(C(=O)NCC(=O)Nc2ccc3c(c2)CCC3)cc1

1: inactive; 2: 14.7 µM (active); 3: inactive; 4: inactive; 5: inactive; 6: 4.15 µM (active); 7: inactive; 8: inactive

Go through the list and state Potency for each entry.
1. O=C(CCc1nnc2ccc(NCc3ccco3)nn12)Nc1cc(F)ccc1F
2. CCOC(=O)c1[nH]c2ccc(OC)cc2c1NC(=O)CCN1CCN(Cc2ccccc2)CC1
3. CSc1ccc(-c2c(C#N)c(N)nc3c2c(C)nn3-c2ccccc2)cc1
4. CCCOc1ccc(CNC(=O)C2CCN(c3nn4c(=O)cc(C)nc4s3)CC2)cc1
5. Cc1cc(=O)n2nc(N3CCCC(C(=O)N4CCN(C)CC4)C3)sc2n1 (centres undefined)
6. O=C(NNC(=O)c1ccco1)Nc1ccccc1
7. CC1(c2ccc3ccccc3c2)NC(=O)N(CC(N)=O)C1=O (centres undefined)

1. inactive
2. inactive
3. 2.08 µM (active)
4. 11.7 µM (active)
5. inactive
6. inactive
7. inactive

Go through the list and state Potency for each entry.
1. CC(C)[C@H](NC(=O)N1CCn2c1nc1ccccc12)C(=O)NC1CC1
2. CC1(C)C2CCC1(CS(=O)(=O)NCCc1c[nH]c3ccccc13)C(=O)C2 (centres undefined)

1: inactive; 2: inactive

Go through the list and state Potency for each entry.
1. COc1cccc(CN(C)CC2CCCN(CCc3ccc(Cl)cc3)C2)c1OC (centres undefined)
2. CC(C)c1ccc(NC(=O)COC(=O)c2ccc(CN3CCCC3=O)cc2)cc1
3. CCCOc1cccc(C(=O)NCCCNC(=O)c2cccnc2)c1
4. Cc1nn(-c2ccccc2)c2c1C(c1ccc(F)cc1)C(C#N)=C(N)O2 (centres undefined)
5. Cn1c(=O)c2c(-c3cccc(Br)c3)c(C#N)c(N)nc2n(C)c1=O
6. Cc1noc(C)c1S(=O)(=O)N(CC(=O)NCc1ccc(Cl)cc1)c1ccc2c(c1)OCO2
7. CCOc1ccc(N(CC(=O)NCCc2ccc(OC)cc2)S(C)(=O)=O)cc1

2.94 µM (active)
inactive
inactive
inactive
inactive
inactive
inactive
